target: MSI1 full-length (mouse, UniProt Q61474 1-362); assay: nsRBNS (natural sequence RNA bind-n-seq); RBNS binding buffer (assumed for nsRBNS): 25 mM Tris pH 7.5, 150 mM KCl, 3 mM MgCl2, 0.01% Triton X-100, 500 ug/ml BSA, 20 U/ml SUPERase-In, 4 C; UNK is unkempt and MSI1 is Musashi-1; names of the RNAs are library labels; protein concentration not given here; high values mean tight binding
Sequence (Q61474 whole entry): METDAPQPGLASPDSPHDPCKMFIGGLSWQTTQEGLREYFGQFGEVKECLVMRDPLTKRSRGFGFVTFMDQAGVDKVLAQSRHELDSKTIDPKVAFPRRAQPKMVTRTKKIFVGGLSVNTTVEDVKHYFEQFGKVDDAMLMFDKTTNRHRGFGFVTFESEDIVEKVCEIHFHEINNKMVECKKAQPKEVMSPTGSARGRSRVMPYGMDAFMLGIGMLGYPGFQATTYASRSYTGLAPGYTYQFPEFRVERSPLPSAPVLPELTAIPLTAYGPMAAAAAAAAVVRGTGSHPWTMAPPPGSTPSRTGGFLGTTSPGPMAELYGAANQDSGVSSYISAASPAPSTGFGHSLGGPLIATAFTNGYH
The full ranking holds about 5,800 sequences; the median of “enrichment r” is about 0.54, and the highest 2% start at about 16. The sample holds the highest values, similar sequences and a random draw of the others, so the mix is not that of the screen.
Parameter Measured: log10 binding signal (log10 of the value in enrichment R)

INSERT INTO measurements (binder, recorded_value) VALUES
  ('chr1:37566712:37566813:+|3pUTR|ENSG00000163879|unk|FALSE|unique (ssRNA) RNA: GGGAGUUCUACAGUCCGACGAUCGCUUUAUUUCCCUAGCACUGGUGAAGGGCUUCAACUGUCAAACCUCAGAACAAAUGCAUUAGGGCCUUAGAAAUGUCAAUGGGGCAGGAAGAAAACACAAUUUCUAACUGCCUGUUUUUGCAACAGAGGAUUGAGCAUCA', -0.41),
  ('chr15:34980028:34980129:-|3pUTR|ENSG00000198146|msi1|total|mutant (ssRNA) RNA: GGGAGUUCUACAGUCCGACGAUCGGUUCUGUUAUUUAAGCCUGUUCUAAGUUUGAUCAAAUGGCAAUGACCCGGUCCCGUUUCCGUUUUUAUUUUUGCAGGAGUCUAUUGCUAAAGAAUUUUAUUUUGAUGCUUGUUAAAUUUCAACAGAGGAUUGAGCAUCA', -0.11),
  ('chr12:39553730:39553837:-|3pUTR|ENSG00000173208|unk|FALSE|unique (ssRNA) RNA: GGGAGUUCUACAGUCCGACGAUCGAAGUAUGUUAAGCUAAGCACAGAGAAAAAAAGGCAGCAAGACAUGUUUUAUAAGAUUUUAGCAUUAAGGAAGUAUAUGAUCUGACUUUUCAGAAGAAAAUAAACAAAUGCAUUAUGUAACAACAGAGGAUUGAGCAUCA', 0.39),
  ('ENSG00000114744:stop:overlap|stop_codon|ENSG00000114744|stop_codon|NA|stop_codon (ssRNA) RNA: GGGAGUUCUACAGUCCGACGAUCAACAAGCAUUGGAAGAGAUGAAGACAAAUCACUGUAGGAGAGUUGUUCGCAACAUCAAGUAGUACCAGUUUUAAGGUUUUAAUUCAUUUGAAUCACUUAUGAAUUGAUGAUAUACAGCAACAACAGAGGAUUGAGCAUCA', 1.21),
  ('chrX:101412715:101412817:+|CDS|ENSG00000126945|unk|FALSE|unique (ssRNA) RNA: GGGAGUUCUACAGUCCGACGAUCGGGUAUGGAGGCUAUGAUGACUAUGGUGGCUAUAAUGAUGGAUAUGGCUUUGGGUCUGAUAGAUUUGGAAGAGACCUCAAUUACUGUUUUUCAGGAAUGUCUGAUCAUAGAUACGGAGAUCAACAGAGGAUUGAGCAUCA', -0.11),
  ('chr10:11920118:11920232:-|3pUTR|ENSG00000151461|unk|FALSE|unique (ssRNA) RNA: GGGAGUUCUACAGUCCGACGAUCGUAGUAUAUUUAGUCGGAGAGCACAUCUGUAUGCGACAACUUGAUUACAUCUUUUUUUCUAGCUAUUUUGCAUUUUUUCUUUUACCAUGUUUCAGUUUCUGCAUGUAGAUUUAAAUAAAACAACAGAGGAUUGAGCAUCA', 1.37),
  ('chr7:157269180:157269282:+|3pUTR|ENSG00000009335|unk|FALSE|unique (ssRNA) RNA: GGGAGUUCUACAGUCCGACGAUCAUUUUAGGUUGUUUUAUGUUGAAUGUUCUAUAUCUUAUUAGUUAAUUUGUAUAUUUUAUUAGUAUUUUGGAAAUAGCAUAUCUGAGACUGAAGAGAAAUUGACAAUUCACUUAUUUGUGGCAACAGAGGAUUGAGCAUCA', 1.10);
